test system: soybean; experiment: Test F preemergence; format: in vivo, Glycine max; conditions: preemergence; 16 g ai/ha; scale 0 to 100, 100 is complete control
EXPERIMENTAL READOUT: Plant response rating, Soybean
Reply: number alone, nothing else.

// worked examples, Plant response rating, Soybean included
# CHEM SMILES, Plant response rating, Soybean
measured = [
    ("CCCc1cc(C(=O)NCC(F)(F)F)nn1Cc1ccnc(C(F)(F)F)c1", 0),
    ("Cc1cc(C(=O)NC(C)C)nn1Cc1ccnc(C(F)(F)F)c1", 5),
    ("CCOc1cc(C(=O)NCC(F)(F)F)nn1Cc1ccnc(C(F)(F)F)c1", 0),
]

Now turn to the next molecule.
q: Test system soybean; read-out Plant response rating, Soybean; what value for `CCNC(=O)c1cc(CC)n(Cc2ccnc(C(F)(F)F)c2)n1` ?
a: 0

---

Below, each entry is listed alongside its reported Morningglory plant response rating.
system: morningglory; test: Test A postemergence; assay type: in vivo, Ipomoea spp.; settings: Postemergence, 500 g ai/ha; visual rating after approx. 10 days, 0 to 100 scale (0 no effect, 100 complete control)

# MOLECULE, Morningglory plant response rating
measured = [
    ("CCc1cc(C(=O)NC2CC2)nn1Cc1cc(C(F)(F)F)nn1CC [Compound 118]", 90),
    ("CCNC(=O)c1cc(C)n(Cc2cccc(OC(F)(F)F)c2)n1 [Compound 4]", 90),
    ("Cc1cc(C(=O)NC2CC2)nn1Cc1cc(F)cc(C(F)(F)F)c1 [Compound 14]", 80),
]

q: Which Morningglory plant response rating reading was recorded for the molecule CCc1cc(C(=O)NOC(C)(C)CC)nn1Cc1cccc(OC(F)(F)F)c1 [Compound 71] ?
a: 40

q: Dear colleague, I am looking for the recorded Morningglory plant response rating of the following molecule: CCc1cc(C(=O)NCC(F)(F)F)nn1Oc1ccnc(C(F)(F)F)c1 [Compound 84]
a: 70

q: I would be grateful if you could share the reported Morningglory plant response rating for CCc1cc(C(=O)NCC(F)(F)F)nn1Cc1ccnc(C(F)(F)F)c1 [Compound 78] .
a: 100

---

Measured Ryegrass, Italian plant response rating accompanies every entry in the list below.
tested on: ryegrass, Italian; test: Test C preemergence; type: in vivo, Lolium multiflorum; conditions: preemergence, 31 g ai/ha; visual rating, scale 0 to 100 (0 no effect, 100 complete control), 13 to 15 days
Reply with just the number.

Worked examples follow.
# COMPOUND, Ryegrass, Italian plant response rating
data = [
    ("CCNC(=O)c1cc(CC)n(Cc2ccnc(OC(F)F)c2)n1 [Compound 130]", 5),
    ("CCONC(=O)c1cc(CC)n(Cc2cc(C(F)(F)F)no2)n1 [Compound 125]", 0),
]

Proceeding to the next compound to report its Ryegrass, Italian plant response rating.
q: Data request, read-out Ryegrass, Italian plant response rating, for CCCc1cc(C(=O)NOCC)nn1Cc1ccnc(C(F)(F)F)c1 [Compound 185]
a: 0

---

system: ragweed; experiment: Test C preemergence; format: in vivo, Ambrosia elation; details: preemergence, 62 g ai/ha; scale 0 to 100 (0 no effect, 100 complete control), 13 to 15 days
Source text: […]
Collected Ragweed plant response rating values appear next to each entry.
Keep the answer to the number alone.

q: Name the reported Ragweed plant response rating value associated with the compound CCNC(=O)c1cc(CC)n(Cc2ccnc(C(F)(F)F)c2)n1 [Compound 196]
a: 90

q: State the recorded Ragweed plant response rating for this entry: CCc1cc(C(=O)NC(C)C)nn1Cc1ccnc(C(F)(F)F)c1 [Compound 139]
a: 75

q: Looking for the measured Ragweed plant response rating of Cc1cc(C(=O)NC(C)C)nn1Cc1ccnc(C(F)(F)F)c1 [Compound 197] , can you help?
a: 85

q: What does the record list as Ragweed plant response rating for CCCc1cc(C(=O)NOCC)nn1Cc1ccnc(C(F)(F)F)c1 [Compound 185] ?
a: 75

q: Which Ragweed plant response rating is reported for this compound? O=C(NCC(F)(F)F)c1cc(CCCl)n(Cc2ccnc(C(F)(F)F)c2)n1 [Compound 143]
a: 98

q: Ragweed plant response rating lookup needed for CCOc1cc(C(=O)NC2CC2)nn1Cc1ccnc(OC(F)F)c1 [Compound 133] , thanks.
a: 60

---

test system: oilseed rape; experiment: Test C preemergence; assay type: in vivo, Brassica napus; details: preemergence, 125 g ai/ha; 13 to 15 days; scale 0 to 100, 0 = no effect, 100 = complete control
EXPERIMENTAL READOUT: Plant response rating, Oilseed Rape
Respond using a number only.

Known Plant response rating, Oilseed Rape results, listed for orientation:
# CHEM SMILES, NUMBER
records = [
    ("CCOc1cc(C(=O)NC2CC2)nn1Cc1ccnc(OC(F)F)c1", 100),
    ("O=C(NCC(F)(F)F)c1cc(CCCl)n(Cc2ccnc(C(F)(F)F)c2)n1", 95),
    ("CCNC(=O)c1cc(CC)n(Cc2ccnc(OC(F)F)c2)n1", 98),
    ("CCNC(=O)c1cc(CC)n(Cc2ccnc(C(F)(F)F)c2)n1", 100),
    ("CCNC(=O)c1cc(CCCl)n(Cc2ccnc(C(F)(F)F)c2)n1", 100),
]

Attention now turns to another entry.
q: Which measured Plant response rating, Oilseed Rape belongs to `CCc1cc(C(=O)NC2CC2)nn1Cc1ccnc(OCC(F)(F)F)c1` , tested on oilseed rape?
a: 98

---

system: large crabgrass; assay: Test F preemergence; assay type: in vivo, Digitaria sanguinalis; settings: Preemergence; 125 g ai/ha; scale 0 to 100
Below, each entry is listed alongside its reported Plant response rating, Large Crabgrass.

Worked set:
# CHEM SMILES, RESULT
rows = [
    ("CCc1cc(C(=O)NCC(F)(F)F)nn1Cc1ccnc(C(F)(F)F)c1", 100),
    ("CCc1cc(C(=O)NC2CC2)nn1Cc1ccnc(OCC(F)(F)F)c1", 100),
    ("Cc1cc(C(=O)NC(C)C)nn1Cc1ccnc(C(F)(F)F)c1", 100),
]

Now for another entry.
q: Please give the measured Plant response rating, Large Crabgrass for this compound: `CCOc1cc(C(=O)NC(C)C)nn1Cc1ccnc(C(F)(F)F)c1`
a: 100

---

tested on: corn; test: Test A postemergence; type: in vivo, Zea mays; conditions: postemergence, 125 g ai/ha, about 10 days, visual rating on 0 to 100 scale (0 no effect, 100 complete control)
Give 1 (yes) when the value for Corn plant response rating is at least 20. Give 0 (no) when it is less.

Some solved cases for reference:
# CHEM SMILES, GROUP LABEL
measured = [
    ("CCc1cc(C(=O)NC(C)C)nn1Cc1cc(OC(F)F)nn1C", "0 (no)"),
    ("CCCNC(=O)c1cc(CCCl)n(Cc2ccnc(C(F)(F)F)c2)n1", "1 (yes)"),
    ("CCCc1cc(C(=O)NCC(F)(F)F)nn1Cc1ccnc(C(F)(F)F)c1", "1 (yes)"),
    ("CCCCc1cc(C(=O)NCC(F)(F)F)nn1Cc1ccnc(C(F)(F)F)c1", "0 (no)"),
    ("CCONC(=O)c1cc(OCC)n(Cc2ccnc(C(F)(F)F)c2)n1", "1 (yes)"),
]

q: Is Corn plant response rating at least 20? Consider `CCc1cc(C(=O)NOC)nn1Cc1ccnc(C(F)(F)F)c1`
a: 1 (yes)

q: Please indicate if the recorded Corn plant response rating for `CCc1cc(C(=O)NCC(F)(F)F)nn1Cc1ccnc(C(F)(F)F)c1` meets or exceeds 20.
a: 1 (yes)

q: Is Corn plant response rating for `CCCNC(=O)c1cc(CC)n(Cc2cc(C(F)(F)F)nn2C(C)C)n1` at or above 20?
a: 0 (no)

q: Does the reported Corn plant response rating for `CCc1cc(-c2ccc(C(F)(F)F)cc2)nn1C(=O)c1ccnc(C(F)(F)F)c1` fall at or above the 20 mark?
a: 0 (no)

q: Record `CCCc1cc(C(=O)NCC)nn1Cc1ccnc(C(F)(F)F)c1` ; criterion: Corn plant response rating no lower than 20. Met?
a: 1 (yes)

q: Check the entry `CCc1cc(C(=O)NC(C)C)nn1Cc1ccnc(C(F)(F)F)c1` : does Corn plant response rating equal or exceed 20?
a: 1 (yes)

q: Answer whether Corn plant response rating of `CCNC(=O)c1cc(CCCl)n(Cc2ccnc(C(F)(F)F)c2)n1` is greater than or equal to 20.
a: 1 (yes)

q: Decide: is the reported value of Corn plant response rating for `CCc1cc(C(=O)NOC(C)C)nn1Cc1ccnc(C(F)(F)F)c1` equal to or greater than 20?
a: 1 (yes)

q: Textbook exercise: given the entry `Cc1cc(C(=O)NC2CC2)nn1Cc1cccc(OC(F)(F)F)c1` , state whether its Corn plant response rating is greater than or equal to 20.
a: 0 (no)

q: Is the recorded value of Corn plant response rating equal to or greater than 20 for this molecule? `CCc1cc(C(=O)NC2CC2)nn1Cc1nc(C(F)(F)F)no1`
a: 0 (no)

q: Is Corn plant response rating for `CCCNC(=O)c1cc(C)n(Cc2ccnc(C(F)(F)F)c2)n1` at or above 20?
a: 1 (yes)

q: Given `Cc1cc(C(=O)NC2CC2)nn1Cc1ccc(F)c(C(F)(F)F)c1` , state whether its Corn plant response rating is at least 20.
a: 0 (no)

q: Is reported Corn plant response rating greater than or equal to 20 here: `CCONC(=O)c1cc(CC)n(Cc2cc(C(F)(F)F)no2)n1`
a: 1 (yes)

q: Given `CCOc1cc(C(=O)NCC(F)(F)F)nn1Cc1ccnc(C(F)(F)F)c1` , state whether its Corn plant response rating is at least 20.
a: 1 (yes)

q: Does Corn plant response rating meet or surpass 20 for `CCNC(=O)c1cc(C)n(Cc2cccc(OC(F)(F)F)c2)n1` ?
a: 0 (no)
